Each record here notes measured IC50.
Target: hERG potassium ion channels (Homo sapiens (Human))
Sequence (Q12809 whole entry): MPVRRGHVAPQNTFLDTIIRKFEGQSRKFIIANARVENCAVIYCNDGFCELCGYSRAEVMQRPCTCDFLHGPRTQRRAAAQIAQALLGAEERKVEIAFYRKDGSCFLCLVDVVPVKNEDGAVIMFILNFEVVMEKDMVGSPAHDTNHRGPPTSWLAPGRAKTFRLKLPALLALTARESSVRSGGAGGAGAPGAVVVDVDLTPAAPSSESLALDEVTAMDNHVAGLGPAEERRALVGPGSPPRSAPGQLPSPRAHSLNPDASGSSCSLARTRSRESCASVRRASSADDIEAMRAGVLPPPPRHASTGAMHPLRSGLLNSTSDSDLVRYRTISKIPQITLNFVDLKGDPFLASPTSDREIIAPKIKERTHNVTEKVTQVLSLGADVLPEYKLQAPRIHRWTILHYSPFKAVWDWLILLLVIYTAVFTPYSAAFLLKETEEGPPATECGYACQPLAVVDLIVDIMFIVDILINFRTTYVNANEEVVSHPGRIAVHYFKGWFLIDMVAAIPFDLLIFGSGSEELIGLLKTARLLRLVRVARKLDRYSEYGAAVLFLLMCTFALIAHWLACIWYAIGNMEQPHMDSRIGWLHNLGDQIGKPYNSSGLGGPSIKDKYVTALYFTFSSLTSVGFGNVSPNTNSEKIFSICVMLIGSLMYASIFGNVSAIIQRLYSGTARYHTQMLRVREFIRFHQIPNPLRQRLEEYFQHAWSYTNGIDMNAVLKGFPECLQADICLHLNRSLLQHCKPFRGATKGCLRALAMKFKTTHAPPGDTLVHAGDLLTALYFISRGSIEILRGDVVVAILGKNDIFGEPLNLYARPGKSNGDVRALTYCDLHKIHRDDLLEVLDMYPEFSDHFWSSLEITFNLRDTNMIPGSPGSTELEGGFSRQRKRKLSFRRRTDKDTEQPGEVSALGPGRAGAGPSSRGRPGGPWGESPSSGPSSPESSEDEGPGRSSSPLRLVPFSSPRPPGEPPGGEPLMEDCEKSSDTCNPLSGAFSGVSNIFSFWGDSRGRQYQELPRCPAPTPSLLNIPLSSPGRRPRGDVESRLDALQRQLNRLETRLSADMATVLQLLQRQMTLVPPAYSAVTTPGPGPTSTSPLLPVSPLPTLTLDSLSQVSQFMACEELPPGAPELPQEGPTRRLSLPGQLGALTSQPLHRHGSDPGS
Experiment: Experiment 4: hERG potassium ion channel inhibition, automated patch clamp (Qpatch), CHO-hERG cells
Conditions: highest test concentration 40 μM
Where a name gives a salt, the structure may show the parent alone.
Kindly answer with a numeric value in µM, unit omitted.

Worked cases, answers included:
molecule	outcome_measure	meas_value
CC(C)(CO)n1nnc2cc(-c3sc(C(=O)N4CCC[C@@H](N)C4)cc3-c3ccc(C#N)c(F)c3)c(F)c(F)c21 [Hydrochloride of compound 99]	IC50	27
N#Cc1ccc(-c2cc(C(=O)N3CCC[C@@H](N)C3)sc2-c2ccc3nn(CC4(O)CC4)cc3c2)cc1F [Hydrochloride of compound 89]	IC50	22.7

IC50 for N#Cc1ccc(-c2cc(C(=O)N3CCC[C@@H](N)C3)sc2-c2ccc3c(c2)nnn3CC2(O)CCC2)cc1F [Hydrochloride of compound 82] is 14.9

----------
Test: Experiment 3: pharmacokinetic evaluation in CD-1 mice (IV and oral)
Format: in vivo
Conditions: mouse, plasma; male CD-1 mice; PO 2 mg/kg vs IV 1 mg/kg; read-out: Bioavailability F (%)
Counter-ions that a name gives are not always drawn.
outcome_measure: bioavailability (%)
Kindly answer with a numeric value in %, unit omitted.

compound	outcome_measure	meas_value
CC(C)(CO)n1cc2cc(-c3sc(C(=O)N4CCC[C@@H](N)C4)cc3-c3ccc(C#N)c(F)c3)ccc2n1 [Hydrochloride of compound 87]	bioavailability	41.1
COC1CC(n2cc3cc(-c4sc(C(=O)N5CCC[C@@H](N)C5)cc4-c4ccc(C#N)c(F)c4)ccc3n2)C1 (stereo partly drawn) [Hydrochloride of compound 80]	bioavailability	31.9
Cn1cc2cc(-c3sc(C(=O)N4CCC[C@@H](N)C4)cc3-c3ccc(C#N)c(F)c3)ccc2n1 [Hydrochloride of compound 36]	bioavailability	33.9
CC(C)(CO)n1nnc2cc(-c3sc(C(=O)N4CCC[C@@H](N)C4)cc3-c3ccc(C#N)c(F)c3)c(F)c(F)c21 [Hydrochloride of compound 99]	bioavailability	47.7
CN[C@@H]1CCCN(C(=O)c2cc(-c3ccc(C#N)c(F)c3)c(-c3cc4nnn(CC(C)(C)O)c4c(F)c3F)s2)C1 [Hydrochloride of compound 98]	bioavailability	58.6

bioavailability for COc1ccc(-c2sc(C(=O)N3CCC[C@@H](N)C3)cc2-c2ccc(C#N)c(F)c2)cc1F [Hydrochloride of compound 1] is 53.9

----------
Experiment: Experiment 3: pharmacokinetic evaluation in CD-1 mice (IV and oral)
Type: in vivo
Conditions: mouse, plasma; male CD-1 mice; IV 1 mg/kg; read-out: Volume of distribution at steady state Vdss
Counter-ions that a name gives are not always drawn.
Quick rule for you: Vd at 5 L/kg or higher means label 1, lower means label 0.

Reference set (4 entries):
compound	class_label
CN[C@@H]1CCCN(C(=O)c2cc(-c3ccc(C#N)c(F)c3)c(-c3cc4nnn(CC(C)(C)O)c4c(F)c3F)s2)C1 [Hydrochloride of compound 98]	label 1
CC(C)(CO)n1nnc2cc(-c3sc(C(=O)N4CCC[C@@H](N)C4)cc3-c3ccc(C#N)c(F)c3)c(F)c(F)c21 [Hydrochloride of compound 99]	label 1
COc1ccc(-c2sc(C(=O)N3CCC[C@@H](N)C3)cc2-c2ccc(C#N)c(F)c2)cc1F [Hydrochloride of compound 1]	label 1
CC(C)(CO)n1cc2cc(-c3sc(C(=O)N4CCC[C@@H](N)C4)cc3-c3ccc(C#N)c(F)c3)ccc2n1 [Hydrochloride of compound 87]	label 0

Challenge: Given Cn1cc2cc(-c3sc(C(=O)N4CCC[C@@H](N)C4)cc3-c3ccc(C#N)c(F)c3)ccc2n1 [Hydrochloride of compound 36] , state whether its Vd is at least 5 L/kg.
Response given: label 0

----------
Each record here notes measured IC50.
Molecular target: human LSD1 (Homo sapiens (Human))
Assay: Experiment 1B: in vitro LSD1 enzyme activity, enzyme-coupled fluorescence (HRP/Amplex Red), H3(1-21)K4me2 peptide 10 μM (Reaction Biology)
Assay type: biochemical
Details: histone H3(1-21)K4me2 peptide 10 μM
Structures can show the parent of a compound that is named as a salt.
Kindly answer with a numeric value in nM, unit omitted.

Worked cases, answers included:
molecule	IC50 [nM]
N#Cc1ccc(-c2cc(C(=O)N3CCC[C@@H](N)C3)sc2-c2cc3cn([C@H]4COCC[C@@H]4O)nc3cc2F)cc1F [Hydrochloride of compound 94]	98.4
N#Cc1ccc(-c2cc(C(=O)N3CCC[C@@H](N)C3)sc2-c2ccnc(N)c2)cc1F [Hydrochloride of compound 33]	38
N#Cc1ccc(-c2cc(C(=O)N3CCC[C@@H](N)C3)sc2-c2ccc3[nH]c(=O)oc3c2)cc1F [Hydrochloride of compound 31]	26.7
N#Cc1ccc(-c2cc(C(=O)N3CCC[C@@H](N)C3)sc2-c2ccc3nn(CC4(O)CCC4)cc3c2)cc1F [Hydrochloride of compound 79]	13.6
N#Cc1ccc(-c2cc(C(=O)N3CCC[C@@H](N)C3)sc2-c2cc3cn(CC4(O)CC4)nc3cc2F)cc1F [Hydrochloride of compound 93]	18

# context switch: different molecule, same IC50
IC50 for CC(C)(CO)n1nnc2cc(-c3sc(C(=O)N4CCCNCC4)cc3-c3ccc(C#N)c(F)c3)c(F)c(F)c21 [Hydrochloride of compound 103] is 21.6

----------
Assay: Experiment 3: pharmacokinetic evaluation in CD-1 mice (IV and oral)
Type: in vivo
Conditions: mouse, plasma; female CD-1 mice; IV 1 mg/kg; read-out: Clearance rate CL
Structures can show the parent of a compound that is named as a salt.
Each record here notes measured clearance.
Kindly answer with a numeric value in L/h/kg, unit omitted.

Worked cases, answers included:
compound	units_text	clearance
COc1ccc(-c2sc(C(=O)N3C4CCC3C(N)C4)cc2-c2ccc(C#N)c(F)c2)cc1F (racemic) [Hydrochloride of compound 2]	L/h/kg	1.18
COc1ccc(-c2sc(C(=O)N3CCC[C@@H](N)C3)cc2-c2ccc(C#N)c(F)c2)cc1F [Hydrochloride of compound 1]	L/h/kg	1.07
Cn1cc2cc(-c3sc(C(=O)N4CCC[C@@H](N)C4)cc3-c3ccc(C#N)c(F)c3)ccc2n1 [Hydrochloride of compound 36]	L/h/kg	2.24
COc1ccc(-c2sc(C(=O)N3CC[C@H](N)C3)cc2-c2ccc(C#N)c(F)c2)cc1F [Hydrochloride of compound 7]	L/h/kg	1.25

clearance for COc1ccc(-c2sc(C(=O)N3CCCNCC3)cc2-c2ccc(C#N)c(F)c2)cc1F [Hydrochloride of compound 6] is 1.08

----------
Assay: Experiment 3: pharmacokinetic evaluation in CD-1 mice (IV and oral)
Assay type: in vivo
Conditions: mouse, plasma; male CD-1 mice; PO 2 mg/kg; read-out: Area under drug-time curve AUC0-last PO
Counter-ions that a name gives are not always drawn.
Each record here notes measured AUC(0-t).
Kindly answer with a numeric value in nM·h, unit omitted.

Worked cases, answers included:
compound	AUC(0-t), nM·h
COC1CC(n2cc3cc(-c4sc(C(=O)N5CCC[C@@H](N)C5)cc4-c4ccc(C#N)c(F)c4)ccc3n2)C1 (stereo partly drawn) [Hydrochloride of compound 80]	576
CC(C)(CO)n1cc2cc(-c3sc(C(=O)N4CCC[C@@H](N)C4)cc3-c3ccc(C#N)c(F)c3)ccc2n1 [Hydrochloride of compound 87]	1010

# context switch: different compound, same AUC(0-t)
AUC(0-t) for Cn1cc2cc(-c3sc(C(=O)N4CCC[C@@H](N)C4)cc3-c3ccc(C#N)c(F)c3)ccc2n1 [Hydrochloride of compound 36] is 742

----------
Target: UniProt:O60341
Assay: Experiment 1A: in vitro LSD1 enzyme activity, enzyme-coupled fluorescence (HRP/Amplex Red), H3K4me peptide 20 μM (Wuhan Heyan)
Assay type: biochemical
Details: histone H3K4me peptide 20 μM
Where a name gives a salt, the structure may show the parent alone.
Each record here notes measured IC50.
Kindly answer with a numeric value in nM, unit omitted.

Worked cases, answers included:
compound	meas_value
COc1ccc(-c2sc(C(=O)N3CC[C@H](N)C3)cc2-c2ccc(C#N)c(F)c2)cc1F [Hydrochloride of compound 7]	121
COc1ccc(-c2sc(C(=O)N3CCCNCC3)cc2-c2ccc(C#N)c(F)c2)cc1F [Hydrochloride of compound 6]	112
COc1ccc(-c2sc(C(=O)N3CCC[C@@H](N)C3)cc2-c2ccc(C#N)c(F)c2)cc1F [Hydrochloride of compound 1]	82

IC50 for COc1ccc(-c2sc(C(=O)N3CCNCC3)cc2-c2ccc(C#N)c(F)c2)cc1F [Hydrochloride of compound 5] is 345

IC50 for COc1ccc(-c2sc(C(=O)N3CCC4(CCNC4)CC3)cc2-c2ccc(C#N)c(F)c2)cc1F [Hydrochloride of compound 10] is 192

----------
Test: Experiment 3: pharmacokinetic evaluation in CD-1 mice (IV and oral)
Format: in vivo
Conditions: mouse, plasma; male CD-1 mice; IV 1 mg/kg; read-out: Clearance rate CL
Where a name gives a salt, the structure may show the parent alone.
Lab note: anything with clearance below 30 mL/min/kg is marked fulfilled; values at 30 mL/min/kg or higher are marked not fulfilled.

Challenge: Find out if reported clearance for COc1ccc(-c2sc(C(=O)N3CCC[C@@H](N)C3)cc2-c2ccc(C#N)c(F)c2)cc1F [Hydrochloride of compound 1] is less than 30 mL/min/kg
Response given: fulfilled

Challenge: Find out if reported clearance for CC(C)(CO)n1cc2cc(-c3sc(C(=O)N4CCC[C@@H](N)C4)cc3-c3ccc(C#N)c(F)c3)ccc2n1 [Hydrochloride of compound 87] is less than 30 mL/min/kg
Response given: fulfilled

Challenge: Find out if reported clearance for Cn1cc2cc(-c3sc(C(=O)N4CCC[C@@H](N)C4)cc3-c3ccc(C#N)c(F)c3)ccc2n1 [Hydrochloride of compound 36] is less than 30 mL/min/kg
Response given: not fulfilled

Challenge: Find out if reported clearance for CC(C)(CO)n1nnc2cc(-c3sc(C(=O)N4CCC[C@@H](N)C4)cc3-c3ccc(C#N)c(F)c3)c(F)c(F)c21 [Hydrochloride of compound 99] is less than 30 mL/min/kg
Response given: not fulfilled

Challenge: Find out if reported clearance for CN[C@@H]1CCCN(C(=O)c2cc(-c3ccc(C#N)c(F)c3)c(-c3cc4nnn(CC(C)(C)O)c4c(F)c3F)s2)C1 [Hydrochloride of compound 98] is less than 30 mL/min/kg
Response given: not fulfilled

Challenge: Find out if reported clearance for COC1CC(n2cc3cc(-c4sc(C(=O)N5CCC[C@@H](N)C5)cc4-c4ccc(C#N)c(F)c4)ccc3n2)C1 (stereo partly drawn) [Hydrochloride of compound 80] is less than 30 mL/min/kg
Response given: not fulfilled

Numbers sourced from patent US20240199571A1.
